# assay.target: UniProtKB P81908
# Sequence (P81908 whole entry): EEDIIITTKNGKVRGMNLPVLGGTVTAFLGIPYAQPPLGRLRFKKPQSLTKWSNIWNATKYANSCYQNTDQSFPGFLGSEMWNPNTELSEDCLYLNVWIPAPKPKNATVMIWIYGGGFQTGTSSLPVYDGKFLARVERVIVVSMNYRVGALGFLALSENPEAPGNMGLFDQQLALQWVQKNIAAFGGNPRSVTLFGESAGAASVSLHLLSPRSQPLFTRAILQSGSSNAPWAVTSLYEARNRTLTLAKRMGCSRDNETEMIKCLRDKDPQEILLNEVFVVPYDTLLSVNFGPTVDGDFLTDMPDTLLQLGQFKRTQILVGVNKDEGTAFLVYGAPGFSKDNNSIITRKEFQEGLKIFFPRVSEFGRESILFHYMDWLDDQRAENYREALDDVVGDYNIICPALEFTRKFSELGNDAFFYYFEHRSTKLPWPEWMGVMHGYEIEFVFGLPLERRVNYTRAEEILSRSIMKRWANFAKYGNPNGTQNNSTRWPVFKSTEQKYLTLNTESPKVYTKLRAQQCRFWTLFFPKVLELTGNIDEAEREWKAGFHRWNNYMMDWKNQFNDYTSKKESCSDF
# experiment.notes: Inhibition of equine serum BuChE using butyrylthiocholine iodide as substrate preincubated for 5 mins followed by substrate addition measured after 2 mins by Ellman's method
We label by threshold. Values of IC50 strictly beneath 3 µM are TRUE. Values of 3 µM and up are FALSE.

Solved cases below.
O=C1C(=Cc2ccc(N3CCN(c4ccccc4)CC3)cc2)C(=O)c2ccccc21 = FALSE
O=C1C(=Cc2ccc(N3CCN(c4ccccn4)CC3)cc2)C(=O)c2ccccc21 = TRUE
O=C1C(=Cc2ccc(N3CCN(c4ccc(C(F)(F)F)cc4)CC3)cc2)C(=O)c2ccccc21 = TRUE
O=C1C(=Cc2ccc(N3CCN(c4ccc(F)cc4)CC3)cc2)C(=O)c2ccccc21 = FALSE

Query string: Record Cc1ccc(N2CCN(c3ccc(C=C4C(=O)c5ccccc5C4=O)cc3)CC2)c(C)c1 : is its IC50 strictly below 3 µM?
Result string: TRUE

Query string: Record O=C1C(=Cc2ccc(N3CCN(C(c4ccccc4)c4ccccc4)CC3)cc2)C(=O)c2ccccc21 : is its IC50 strictly below 3 µM?
Result string: FALSE

Query string: Record O=C1C(=Cc2ccc(N3CCN(c4ncccn4)CC3)cc2)C(=O)c2ccccc21 : is its IC50 strictly below 3 µM?
Result string: TRUE

###

# experiment.notes: Cytotoxicity against human SH-SY5Y cells assessed as cell viability at 75 uM after 48 hrs by MTT assay
# Assay type: cell-based
# reported.conditions: read-out: Activity
// reported viability at 48 h, 75 µM per item
API: value field is a number in %; no unit string.

O=C1C(=Cc2ccc(N3CCN(C(=O)c4ccco4)CC3)cc2)C(=O)c2ccccc21 = 86.3

Query string: If you can, please state the reported viability at 48 h, 75 µM value of O=C1C(=Cc2ccc(N3CCN(c4ncccn4)CC3)cc2)C(=O)c2ccccc21 .
Result string: 86.3

###

# assay.target: Amyloid-beta precursor protein (Homo sapiens, UniProt P05067)
# Sequence (P05067 whole entry): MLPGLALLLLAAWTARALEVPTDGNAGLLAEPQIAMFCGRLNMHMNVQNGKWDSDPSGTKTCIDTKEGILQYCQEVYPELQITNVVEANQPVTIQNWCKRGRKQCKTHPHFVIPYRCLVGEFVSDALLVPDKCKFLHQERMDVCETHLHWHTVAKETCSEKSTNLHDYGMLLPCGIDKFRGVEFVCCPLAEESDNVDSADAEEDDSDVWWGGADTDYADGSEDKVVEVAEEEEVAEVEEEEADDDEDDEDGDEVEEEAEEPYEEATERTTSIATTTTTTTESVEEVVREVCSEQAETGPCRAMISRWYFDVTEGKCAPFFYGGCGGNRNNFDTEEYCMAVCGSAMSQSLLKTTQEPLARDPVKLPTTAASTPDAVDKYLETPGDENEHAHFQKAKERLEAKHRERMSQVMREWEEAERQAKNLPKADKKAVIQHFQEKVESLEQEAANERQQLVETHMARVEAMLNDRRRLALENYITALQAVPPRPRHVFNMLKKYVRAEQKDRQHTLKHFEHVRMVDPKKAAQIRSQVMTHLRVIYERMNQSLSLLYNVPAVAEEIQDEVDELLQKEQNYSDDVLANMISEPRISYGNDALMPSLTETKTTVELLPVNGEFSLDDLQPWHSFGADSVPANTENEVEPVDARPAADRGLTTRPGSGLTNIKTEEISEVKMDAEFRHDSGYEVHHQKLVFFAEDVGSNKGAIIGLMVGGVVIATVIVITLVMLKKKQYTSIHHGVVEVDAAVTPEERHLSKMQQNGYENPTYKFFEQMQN
# experiment.notes: Inhibition of self-induced amyloid beta (1 to 42) (unknown origin) aggregation at 25 uM incubated for 48 hrs measured after 5 mins by thioflavin-T fluorescence assay
// reported inhibition per item
API: value field is a number in %; no unit string.

O=C1C(=Cc2ccc(N3CCN(Cc4ccc5c(c4)OCO5)CC3)cc2)C(=O)c2ccccc21 = 71.8
O=C1C(=Cc2ccc(N3CCN(c4ccc(F)cc4)CC3)cc2)C(=O)c2ccccc21 = 61.8
O=C1C(=Cc2ccc(N3CCN(c4ncccn4)CC3)cc2)C(=O)c2ccccc21 = 80.9
Cc1ccc(N2CCN(c3ccc(C=C4C(=O)c5ccccc5C4=O)cc3)CC2)cc1 = 62.4
O=C1C(=Cc2ccc(N3CCN(C(=O)c4ccco4)CC3)cc2)C(=O)c2ccccc21 = 82.2

Query string: Value wanted: inhibition (Amyloid-beta precursor protein (Homo sapiens, UniProt P05067)) of entry O=C1C(=Cc2ccc(N3CCN(c4ccc(C(F)(F)F)cc4)CC3)cc2)C(=O)c2ccccc21
Result string: 74.9

Query string: Value wanted: inhibition (Amyloid-beta precursor protein (Homo sapiens, UniProt P05067)) of entry O=C1C(=Cc2ccc(N3CCN(c4ccc(Cl)cc4)CC3)cc2)C(=O)c2ccccc21
Result string: 60.8

Query string: Value wanted: inhibition (Amyloid-beta precursor protein (Homo sapiens, UniProt P05067)) of entry O=C1C(=Cc2ccc(N3CCN(C(c4ccccc4)c4ccccc4)CC3)cc2)C(=O)c2ccccc21
Result string: 80.6

Query string: Value wanted: inhibition (Amyloid-beta precursor protein (Homo sapiens, UniProt P05067)) of entry O=C1C(=Cc2ccc(N3CCN(c4ccccc4)CC3)cc2)C(=O)c2ccccc21
Result string: 57.3

Query string: Value wanted: inhibition (Amyloid-beta precursor protein (Homo sapiens, UniProt P05067)) of entry Cc1ccc(N2CCN(c3ccc(C=C4C(=O)c5ccccc5C4=O)cc3)CC2)c(C)c1
Result string: 69.9

Query string: Value wanted: inhibition (Amyloid-beta precursor protein (Homo sapiens, UniProt P05067)) of entry O=C1C(=Cc2ccc(N3CCN(C(=O)c4ccccc4)CC3)cc2)C(=O)c2ccccc21
Result string: 53.9

Query string: Value wanted: inhibition (Amyloid-beta precursor protein (Homo sapiens, UniProt P05067)) of entry O=C1C(=Cc2ccc(N3CCN(c4ccccn4)CC3)cc2)C(=O)c2ccccc21
Result string: 70.9
